Assignment: determine reported LogP for the given compounds.
- assay-explanation: physchem
- Format: physicochemical

Some compounds with known LogP results, for comparison:
Cc1ccc(CC(CON2C(=O)c3ccccc3C2=O)NC(=O)c2cc(Cl)ncc2Br)c(C)c1 (centres unmarked) | 4.13^[a]
Cc1cc(Cl)ccc1CC1CON=C(c2cc(Cl)ncc2Oc2cccc(Cl)c2F)N1 (racemic) | 4.59^[a]
Fc1c(Oc2cnc(Cl)cc2C2=NOCC(Cc3ccc(Cl)cc3Cl)N2)cccc1C1CC1 (racemic) | 4.98^[a]
Cc1ccc(CC2CON=C(c3cc(C(F)(F)F)ncc3Oc3cccc(C4CC4)c3F)N2)c(C)c1 (racemic) | 5.20^[a]
Cc1ccc(CC2CON=C(c3cc(Cl)ncc3Oc3cccc(OC(F)F)c3F)N2)c(C)c1 (racemic) | 4.23^[a]
Cc1ccc(Cl)c(CC2CON=C(c3cc(Cl)ncc3Oc3cccc(Cl)c3F)N2)c1 (racemic) | 4.52^[a]
O=C(O)c1cc(Cl)ncc1Oc1cccc(C2CC2)c1 | 2.87^[a]
COCc1cccc(Oc2cnc(Cl)cc2C2=NOCC(Cc3ccc(C)cc3C)N2)c1 (centres unmarked) | 4.10^[a]

Each compound below has a reported value. Please supply its LogP.
1. NOCC(Cc1ccc(Br)cc1Cl)NC(=O)c1cc(Cl)ncc1Oc1cccc(C(F)F)c1 (centres unmarked)
2. Cc1ccc(CC2CON=C(c3cc(C)ncc3Oc3cccc(C4CC4)c3)N2)c(Cl)c1 (racemic)
3. COc1cc(C(=NO)NC(CCl)Cc2ccc(C)cc2Cl)c(Br)cn1 (centres unmarked)
4. FC(F)(F)c1cccc(Oc2cnc(Cl)cc2C2=NOCC(Cc3ccc(C(F)(F)F)cc3Cl)N2)c1 (racemic)
5. Cc1cc(Br)ccc1CC(CCl)NC(=O)c1cc(Cl)ncc1Oc1cccc(C(F)(F)F)c1 (centres unmarked)
6. COc1cccc(Oc2cnc(Cl)cc2C(=O)NC(CON)Cc2ccc(C)cc2C)c1 (centres unmarked)

*A*
1: 3.46^[a]; 2: 3.98^[a]; 3: 4.12^[a]; 4: 4.84^[a]; 5: 5.31^[a]; 6: 3.08^[a]
